Sourced from patent US20260137802A1

- Subject of test: cynomolgus monkey CD117 ectodomain (cynomolgus monkey)
- Experimental details: BLI (Octet), biotinylated ectodomain on SA biosensor, 1:1 global fit, monomeric Fc
Catalogue of Kd readings, one per entry.
Enter your answer as a number in nM; do not include the unit.

What does the record list as Kd for P-0027 (Fc fusion, Any second Fc chain without VHH is not described in the text; also called monovalent form of P27; not shown: Fc fragment) EVQLVESGGGLVRAGGSLRLSCAASGRTTFSTYWLGWFRQAPGKNREFVAAISWSAGMAYYQDSKGRFTISRDNTKNTAYLQMNSLQPEDTAVYYCAAGRFHPIRVDTALYWAQGTQVTVSS ? 8.11

Continuing:
Look at this binder and give its reported Kd. P-0035 (Fc fusion, Any second Fc chain without VHH is not described in the text; also called monovalent form of P35; not shown: Fc fragment) QVQLVESGGGLVQAGGSLRLSCAASGGTFSIYPVGWFRQAPGKQREFVAAIGWSASGTYYGDSVEGRFTVSRDNARSTVYLRMSSLKPDDTAVYYCAAASGSNWRLGAIDEYDSWGQGTQVTVSS 7.02
